Property: pIC50; scope: individual compounds
target: Pim-1 stably transfected into the U2OS human osteogenic sarcoma line (Homo sapiens); construct: expressed in transfected cells; host or cells: U2OS human osteogenic sarcoma line; test: Pim cell assay, phospho-BAD normalized against total BAD, U2OS stably transfected with Pim-1; type: cell-based; conditions: U2OS cells stably transfected with Pim-1, phospho-BAD; high dose […]; read-out: Pim1_Cell_IC50
Sequence (P11309 whole entry): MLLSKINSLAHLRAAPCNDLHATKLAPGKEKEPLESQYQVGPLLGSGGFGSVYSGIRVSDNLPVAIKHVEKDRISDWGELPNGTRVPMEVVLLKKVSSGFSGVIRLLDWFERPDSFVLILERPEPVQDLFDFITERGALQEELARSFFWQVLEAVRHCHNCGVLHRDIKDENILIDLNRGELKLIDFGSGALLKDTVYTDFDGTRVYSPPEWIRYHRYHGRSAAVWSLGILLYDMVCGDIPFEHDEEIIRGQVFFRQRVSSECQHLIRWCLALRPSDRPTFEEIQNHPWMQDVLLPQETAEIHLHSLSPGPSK
In simple prose, pIC50 is minus the logarithm base ten of a concentration in moles per litre.

Consider the reported pIC50 for these compounds:
Fill in: pIC50 of CN1CCOc2cc(-c3ccc4[nH]nc(-c5cncc(O[C@@H]6CCCNC6)n5)c4c3)cnc21 is ___
6.68

And NC1CCN(c2cncc(-c3n[nH]c4ccc(-c5cc6ccccc6nc5Cl)cc34)n2)CC1 ?
5.96

Similarly, c1cnnc(-c2ccc3[nH]nc(-c4cncc(O[C@@H]5CCCNC5)n4)c3c2)c1 ?
6.53

***
Give its pIC50 value. Item: NC1CCN(c2cncc(-c3n[nH]c4ccc(-c5cc6ccccc6nc5O)cc34)n2)CC1
5.44

Moving on to the next compound: Fc1cccc(F)c1-c1ccc2[nH]cc(-c3cncc(N[C@@H]4CCNC4)n3)c2c1
6.42

Another compound to look at: CC(C)Oc1cccc(-c2ccc3[nH]nc(-c4cncc(N5CCC(N)CC5)n4)c3c2)n1
5.52

# repeat for NC1CCN(c2cncc(-c3n[nH]c4ccc(-c5ccc6ncsc6c5)cc34)n2)CC1
6.63

Queued: Fc1cccc(F)c1-c1ccc2[nH]cc(-c3cncc(NC4CCNCC4)n3)c2c1
6.56

What about NC1CCN(c2cncc(-c3n[nH]c4ccc(-c5ccnc6cc(F)ccc56)cc34)n2)CC1 ?
6.11
